System name: DP receptor (Homo sapiens)
Construct: the coding region of the human DP receptor was amplified through PCR; expressed in transfected cells; cDNA from human small intestine poly(A)+ RNA
Sequence (Q13258 whole entry): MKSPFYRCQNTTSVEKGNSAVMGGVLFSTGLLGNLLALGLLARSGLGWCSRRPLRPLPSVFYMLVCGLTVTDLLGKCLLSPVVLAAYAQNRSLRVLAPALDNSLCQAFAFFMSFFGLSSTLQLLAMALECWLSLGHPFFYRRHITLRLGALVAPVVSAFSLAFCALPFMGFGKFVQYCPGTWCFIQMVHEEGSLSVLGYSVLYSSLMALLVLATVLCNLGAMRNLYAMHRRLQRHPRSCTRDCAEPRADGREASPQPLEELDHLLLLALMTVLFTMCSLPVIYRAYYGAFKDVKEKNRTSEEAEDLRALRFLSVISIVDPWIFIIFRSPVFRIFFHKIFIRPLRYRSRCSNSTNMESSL
Test name: [^3H]PGD2 binding assay, cells expressing DP receptor (KD36)
Condition set: [^3H]PGD2 binding in the presence of unlabeled prostanoids, KD36, FIG. 3
Recorded metric: order of the degree of the binding affinity of prostanoids to the DP receptor

Entry under test: CCCCC[C@H](O)/C=C/[C@H]1OC(O)C[C@H](O)[C@@H]1C/C=C\CCCC(=O)O (stereo partly shown) . Its order of the degree of the binding affinity of prostanoids to the DP receptor was 15-deoxydelta 12,14-PGJ2≧TXB2≧PGA2
